System: NCI-H522 lung
Test: NCI tumour cell line growth inhibition, 48 h; in the data active = GI50 below about 0.43 µM; inactive = the rest
*1 amine or outer side, *2 acyl side, *3 side chain or, on linkers, in order; H or OH if unused. Where a SMILES comes first, the peptide text is derived from it. [ ]: non-standard residue; d: D form. The star is where a group is joined. X11 = C/C=C/CC(C)C(O)[C@H](N[*:1])C(=O)[*:2]; Decanoyl = CCCCCCCCCC(=O)*; Leu(ol) = CC(C)C[C@H](N)CO; Aib = CC(C)(N)C(=O)O
Classes used: y (active), n (inactive)

1. C/C=C/CC(C)C(O)[C@H](NC(=O)[C@@H]1CCCN1C(=O)C(C)(C)NC(=O)CCCCCCCCC)C(=O)NC(C)(C)C(=O)N[C@@H](CCC(N)=O)C(=O)N[C@H](CCC(N)=O)C(=O)NC(C)(C)C(=O)NC(C)(C)C(=O)N[C@@H](CCC(N)=O)C(=O)N[C@H](CC(C)C)C(=O)N[C@H](CO)CC(C)C (stereo partly drawn) (Decanoyl-[Aib]P[X11][Aib]Q[dQ][Aib][Aib]Q[dL][Leu(ol)]) ... n
2. CCN1C(=O)N(CC)C2SC(N/N=C/c3cccs3)=NC21 (centres undefined) ... y
3. CN1CCN(Cc2ccc(NC(=O)c3cncc(C#Cc4cnc5ccc(N)nn45)c3)cc2C(F)(F)F)CC1 ... y
4. CN1CCN(Cc2ccc(NC(=O)c3cncc(C#Cc4cnc5ccc(N6CCOCC6)nn45)c3)cc2C(F)(F)F)CC1 ... y

----------
System: COLO 205 colon
Assay: NCI tumour cell line growth inhibition, 48 h; in the data active means GI50 below about 0.43 µM; inactive means the rest
*1 amine or outer side, *2 acyl side, *3 side chain or, on linkers, in order; H or OH if unused. Where a SMILES comes first, the peptide text is derived from it. [ ]: non-standard residue; d: D form. The star is where a group is joined. X11 = C/C=C/CC(C)C(O)[C@H](N[*:1])C(=O)[*:2]; Decanoyl = CCCCCCCCCC(=O)*; Leu(ol) = CC(C)C[C@H](N)CO; Aib = CC(C)(N)C(=O)O
Classes used: 1 (yes) (active), 0 (no) (inactive)

1) C/C=C/CC(C)C(O)[C@H](NC(=O)[C@@H]1CCCN1C(=O)C(C)(C)NC(=O)CCCCCCCCC)C(=O)NC(C)(C)C(=O)N[C@@H](CCC(N)=O)C(=O)N[C@H](CCC(N)=O)C(=O)NC(C)(C)C(=O)NC(C)(C)C(=O)N[C@@H](CCC(N)=O)C(=O)N[C@H](CC(C)C)C(=O)N[C@H](CO)CC(C)C (stereo partly drawn) (Decanoyl-[Aib]P[X11][Aib]Q[dQ][Aib][Aib]Q[dL][Leu(ol)]) ... 0 (no)
2) CCN1C(=O)N(CC)C2SC(N/N=C/c3cccs3)=NC21 (centres undefined) ... 1 (yes)
3) CN1CCN(Cc2ccc(NC(=O)c3cncc(C#Cc4cnc5ccc(N)nn45)c3)cc2C(F)(F)F)CC1 ... 1 (yes)
4) CN1CCN(Cc2ccc(NC(=O)c3cncc(C#Cc4cnc5ccc(N6CCOCC6)nn45)c3)cc2C(F)(F)F)CC1 ... 1 (yes)

----------
Tested on: RPMI-8226 leukemia
Assay: NCI tumour cell line growth inhibition, 48 h
measurement_label: TGI (µM)

1) CN1CCN(Cc2ccc(NC(=O)c3cncc(C#Cc4cnc5ccc(OCCCS(C)(=O)=O)nn45)c3)cc2C(F)(F)F)CC1 ... 3.41
2) CN1CCN(Cc2ccc(NC(=O)c3cncc(C#Cc4cnc5ccc(N)nn45)c3)cc2C(F)(F)F)CC1 ... 5.09
3) CCc1ccc(SC2c3ccc(N(CC)CC)cc3Oc3nc(N)c(C#N)c(N)c32)cc1 (centres undefined) ... 6.08
